test system: OVCAR-3; experiment: NCI tumour cell line growth inhibition, 48 h
The source made the active and inactive calls. Cut-off read from the data, not from the text of the source: active = GI50 up to about 1.1 µM and inactive = higher.
What GI50 was measured for each of the following?

{"molecule": "CC(C)N(C(=O)C12C3C4C1C1C2C3C41C(=O)O)C(C)C (centres undefined)", "target": "OVCAR-3", "GI50": "> 100 µM (inactive)"}

Batch: GI50 for all items listed.
1. CSc1s[s+]c(SC)c1[O-]
2. CN(Cc1ccccc1)Cn1ccnc1
3. CCOP1(=O)CC(C)=C(Cl)C(O)C1 (centres undefined)

## Result
1. 26.5 µM (inactive)
2. > 100 µM (inactive)
3. > 100 µM (inactive)
